The reader will find reported Chroma values listed item by item below.
test: Color (Hunter coordinates) of Ni complex, swabbed on Ni-coated receptor (CF) sheet; assay type: physicochemical; conditions: C=(a^2 +b^2)^1/2; Ni(II) complex, swab concn. 1% (Table 2)
Form field (numeric): enter value without unit.

Here are 6 compounds together with their reported answers.
                               query_smiles  reported_result
0          NC(=NN=Cc1ccco1)C(N)=NN=Cc1ccco1             25.8
1  NC(=NN=Cc1cc([N+](=O)[O-])ccc1O)C(N)=NN=Cc1cc([N+](=O)[O-])ccc1O             40.1
2  CCOC(=O)CC(C)=NN=C(N)C(N)=NN=C(C)CC(=O)OCC             15.4
3  CC(C)(C)c1cc(C=NN=C(N)C(N)=NN=Cc2cc(C(C)(C)C)c(O)c(C(C)(C)C)c2)cc(C(C)(C)C)c1O             19.2
4  NC(=NN=Cc1cc(Br)ccc1O)C(N)=NN=Cc1cc(Br)ccc1O             41.1
5  CCOc1cccc(C=NN=C(N)C(N)=NN=Cc2cccc(OCC)c2O)c1O             39.3

Next item in the queue.
Quote Chroma reported for CC(=NN=C(N)C(N)=NN=C(C)c1ccccc1O)c1ccccc1O please.
20.1

From: patent US5204311A
